Measured values drawn from ChEMBL document CHEMBL1201862 for this set.

system: SR; test: NCI tumour cell line growth inhibition, 48 h
Calls of active or inactive are those of the source. Rule as the data show it: active = GI50 up to about 1.1 µM and inactive = higher.
The reply should be one of these categories: active, inactive

Please review the entries below; each comes with its answer.
1) O=C1c2cccnc2C(=O)C2C3C=CC(C3)C12 (centres undefined) ... inactive
2) OCc1ccc2c(c1)CC1(C2)Cc2cc3c(cc2C1O)CCC3 (centres undefined) ... inactive
3) CCO/C=N\C1=C(C#N)SC2=N/C(=C\c3ccco3)C(=O)N21 ... inactive
4) C#CCn1c(=O)c(C)cn(/C(=C\C(=O)OCC)C(=O)OCC)c1=O ... inactive
5) O=C(/C=C(\O)c1cc(-c2ccccc2)n(-c2ccccc2)n1)c1ccccc1 ... active

Challenge: Lab log entry: `CCCCCCCNC(P(=O)(O)O)P(=O)(O)O` — outcome as called in the assay?
Response given: inactive

Challenge: Lab log entry: `O=C(CCc1ccc(O)c(O)c1)NCCc1ccccc1` — outcome as called in the assay?
Response given: inactive

Challenge: Lab log entry: `Cc1cc(S(=O)(=O)n2ccnc2Oc2ccccc2)c(SSc2cc(Cl)c(C)cc2S(=O)(=O)n2ccnc2Oc2ccccc2)cc1Cl` — outcome as called in the assay?
Response given: inactive

Challenge: Lab log entry: `N#C/N=C(/N)NCN/C(N)=N\C#N` — outcome as called in the assay?
Response given: inactive

Challenge: Lab log entry: COC(=O)C1OC(O[C@H]2CC[C@]3(C)[C@H]4CC=C5[C@@H]6CC(C)(C)CC[C@]6(C(=O)OC6OCC(O)C(O)C6OC6OC(C)C(OC7OCC(O)C(O)C7O)C(OC7OCC(O)(CO)C7O)C6O)[C@H](O)C[C@@]5(C)[C@]4(C)CC[C@H]3C2(C)C)C(O)C(O)C1O (some centres undefined) — outcome as called in the assay?
Response given: inactive

Challenge: Lab log entry: CO[C@@H]1[C@@H](OC2OC(C)C(OC3CC(C)(O)C(OC(=O)CC(C)C)C(C)O3)C(N(C)C)C2O)[C@@H](CC=O)C[C@@H](C)C(=O)/C=C/C2O[C@H]2C[C@@H](C)OC(=O)C[C@H]1OC(C)=O (some centres undefined) — outcome as called in the assay?
Response given: inactive

Challenge: Lab log entry: CC(C)=C1C(=O)C[C@@]2(C)C[C@H]3OC3(C)CC/C=C(/C)CCC12 (some centres undefined) — outcome as called in the assay?
Response given: inactive

Challenge: Lab log entry: `Brc1ccc(/C(N=N/C(=N\Sc2ccccc2)c2ccc(Br)cc2)=N/Sc2ccccc2)cc1` — outcome as called in the assay?
Response given: inactive

Challenge: Lab log entry: Cc1ccc(C2=Nc3c(N)nc(N)nc3NC(c3ccccc3)C2)cc1 (centres undefined) — outcome as called in the assay?
Response given: inactive
